Catalogue of Kd values
# systemUnderTest: T1, GFP-9S library array, motif 4 ND N98K (synthetic construct, N98K)
# T1 chain: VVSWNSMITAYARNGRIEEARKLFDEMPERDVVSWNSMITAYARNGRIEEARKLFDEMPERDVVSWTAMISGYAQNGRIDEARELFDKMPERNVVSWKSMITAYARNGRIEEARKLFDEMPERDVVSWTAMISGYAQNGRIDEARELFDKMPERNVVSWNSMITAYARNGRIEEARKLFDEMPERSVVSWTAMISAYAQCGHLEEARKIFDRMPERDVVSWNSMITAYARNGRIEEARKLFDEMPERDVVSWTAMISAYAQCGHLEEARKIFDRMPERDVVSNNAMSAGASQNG
# assayText: high-throughput RNA pulldown from lysate on Ni-NTA beads; HRP: 50 mM Tris pH 8, 150 mM NaCl, 1 mM beta-mercaptoethanol, 50 ug/ml BSA, 3 ug/ml yeast RNA, 0.5% heparin; ITC and FP: Tris pH 8, 200 mM KCl, 5% glycerol; MST: 50 mM Tris pH 8, 200 mM NaCl, 1 mM DTT, BSA, heparin, 0.05% Tween 20
# conditionLabel: tags: N-terminal His-eGFP; label: 5' Cy5
Supply the numeric figure in nM, leaving out any unit text.

binder	observationType	readoutNumber
AUUACACGUGA (ssRNA) [Cy5-rpoA]	Kd	189

Kindly consider the entry below.
The value of Kd measured for the binder AUUAGACGUGA (ssRNA) [Cy5-rpoA-G] turned out to be 315
